Target: T1, ZFP SBS#1416 (synthetic)
T1 chain: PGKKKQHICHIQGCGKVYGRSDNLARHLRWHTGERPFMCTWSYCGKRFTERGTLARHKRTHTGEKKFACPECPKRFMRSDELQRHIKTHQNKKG
Experiment: EMSA
Details: tags: MBP fusion
propertyLabel: pKd
API: returns pKd as number; meaning -log10 of concentration in mol/L.

Recorded pKd for GCGGCCGAG (dsDNA) DNA 1: GCGGCCGAG DNA 2: CTCGGCCGC , please? 9.82
